- System: Plasmodium berghei
- assay-info: Screen against P. berghei liver stage (PbLuc), transformed with Luciferase, at 10uM
- Assay type: functional, HepG2
- condition-label: tested at 10 uM
The campaign covered roughly 69,000 compounds. About 8,600 (12%) showed an effect of 50% or more. This excerpt belongs to a sample that is enriched for strong results.
Rule: measured INHIBITION below 40% gets criterion met; anything equal to or greater than 40% gets criterion not met.

>  <compound>
COCC1CC2(CCN(C(=O)c3cnc4ccccc4c3)CC2)CO1 (stereo not drawn)

>  <class>
criterion not met

$$$$
>  <compound>
Cc1ccc(NCCCNc2nccc(-c3cn(C)nc3C)n2)nc1

>  <class>
criterion not met

$$$$
>  <compound>
COCCN(CCOC)c1ncc(C#N)cc1Cl

>  <class>
criterion met

$$$$
>  <compound>
Cc1nn(C)cc1-c1ccnc(NCCN)n1

>  <class>
criterion not met

$$$$
>  <compound>
COc1cccc(CN(C)c2ncc(C(N)=O)cc2Cl)c1

>  <class>
criterion met

$$$$
>  <compound>
CCN(CC)C(=O)c1ccc(CNc2ncc(C#N)cc2Cl)cc1

>  <class>
criterion met

$$$$
>  <compound>
CS(=O)(=O)N1CCC[C@]2(C[C@@H](Oc3ncccc3F)CO2)C1

>  <class>
criterion met

$$$$
>  <compound>
CCN(CC)CCCNc1nccc(-c2cn(C)nc2C)n1

>  <class>
criterion not met

$$$$
